This collection of values is drawn from patent US11117891B2.

# Target System: UniProt:Q99683
# Sequence (Q99683 whole entry): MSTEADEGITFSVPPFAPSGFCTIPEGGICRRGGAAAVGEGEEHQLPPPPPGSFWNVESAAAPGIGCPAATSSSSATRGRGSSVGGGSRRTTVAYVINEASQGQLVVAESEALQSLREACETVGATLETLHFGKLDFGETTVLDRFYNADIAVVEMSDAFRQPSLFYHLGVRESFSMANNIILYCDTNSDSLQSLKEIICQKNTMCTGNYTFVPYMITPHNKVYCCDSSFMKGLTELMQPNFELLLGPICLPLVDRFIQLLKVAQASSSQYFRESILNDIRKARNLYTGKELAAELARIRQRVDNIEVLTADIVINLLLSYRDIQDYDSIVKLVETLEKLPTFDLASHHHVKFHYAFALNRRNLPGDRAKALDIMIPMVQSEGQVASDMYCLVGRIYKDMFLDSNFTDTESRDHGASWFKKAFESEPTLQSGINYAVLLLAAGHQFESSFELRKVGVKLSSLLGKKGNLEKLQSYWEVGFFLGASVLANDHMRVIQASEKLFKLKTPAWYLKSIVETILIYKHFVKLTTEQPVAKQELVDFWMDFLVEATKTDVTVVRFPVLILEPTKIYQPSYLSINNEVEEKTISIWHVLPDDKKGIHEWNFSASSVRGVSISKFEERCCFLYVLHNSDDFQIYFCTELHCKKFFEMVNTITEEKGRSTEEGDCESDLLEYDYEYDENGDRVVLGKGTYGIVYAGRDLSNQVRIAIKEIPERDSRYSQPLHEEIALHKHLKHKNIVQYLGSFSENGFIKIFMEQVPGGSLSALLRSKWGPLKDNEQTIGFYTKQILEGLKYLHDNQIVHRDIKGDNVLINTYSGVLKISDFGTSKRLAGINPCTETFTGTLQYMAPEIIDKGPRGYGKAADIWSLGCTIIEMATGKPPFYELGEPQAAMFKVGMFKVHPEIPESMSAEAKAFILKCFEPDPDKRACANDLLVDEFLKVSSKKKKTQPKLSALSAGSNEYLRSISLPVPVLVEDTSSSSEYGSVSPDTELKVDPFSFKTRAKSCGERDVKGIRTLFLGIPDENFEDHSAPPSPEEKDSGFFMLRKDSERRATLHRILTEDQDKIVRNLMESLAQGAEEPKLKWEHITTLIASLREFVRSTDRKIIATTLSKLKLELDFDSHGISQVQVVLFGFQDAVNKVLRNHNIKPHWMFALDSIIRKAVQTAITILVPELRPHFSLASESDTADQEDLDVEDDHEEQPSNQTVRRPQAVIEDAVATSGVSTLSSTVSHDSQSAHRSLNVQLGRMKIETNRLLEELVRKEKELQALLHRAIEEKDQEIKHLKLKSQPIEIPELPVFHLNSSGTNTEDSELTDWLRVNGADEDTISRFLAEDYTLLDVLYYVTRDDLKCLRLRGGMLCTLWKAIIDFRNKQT
# Procedure Summary: ASK1 autophosphorylation (Thr838) assay in HEK293 cells overexpressing human ASK1
# Type: cell-based
# Stated Conditions: HEK pASK1 assay; relative to standard inhibitor (100%) and DMSO vehicle (0%)
Efficacy (%) values for the compounds below.

Chem Smiles	Target System	Efficacy (%)
Cc1cc2c(cc1-c1cnn(C(C)C)c1)C(=O)N(c1cccc(-c3nncn3C(C)C)n1)CC2	UniProt:Q99683	107%
Cc1cc2c(cc1-n1cnc(C3CC3)c1)C(=O)N(c1cccc(-c3nncn3C(C)C)n1)CC2	UniProt:Q99683	103%
CC(C)n1cnnc1-c1cccc(N2CCc3ncc(-n4cnc(C5CC5)c4)cc3C2=O)n1.Cl	UniProt:Q99683	107%
CC(C)n1cc(-c2cnc3c(c2)C(=O)N(c2cccc(-c4nncn4C(C)C)n2)CC3)cn1	UniProt:Q99683	105%
